Listed next: entries and their corresponding ΔTm.
System: KRAS G4 (DNA, G4) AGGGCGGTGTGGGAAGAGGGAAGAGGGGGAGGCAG
Test: CD thermal melt
Conditions: 30 mM KCl; 10 mM Tris pH 6.6, 1% DMSO; 10 μM DNA, 40 μM compound
# output: bare number, implied unit °C

N=C(NCCCCCCNC(=N)NC(=N)Nc1ccc(Cl)cc1)NC(=N)Nc1ccc(Cl)cc1 | 13.0
NCCOc1cc(C(=O)Nc2cc(OCCN)c3ccccc3n2)nc(C(=O)Nc2cc(OCCN)c3ccccc3n2)c1 | 31.6

Next, consider the following compound.
Briefly, ΔTm measured for CCCCC(CC)CNC(=N)NC(=N)NCCCCCCNC(=N)NC(=N)NCC(CC)CCCC (stereo not shown) : 7.1
